pIC50: −log10 of the molar value.
Assay read-out pIC50 on Autotaxin (Homo sapiens, UniProt Q13822); records merged from the literature.

Example cases with answers are listed next.
INSERT INTO measurements (molecule, tested_target, value) VALUES
  ('O=C(O)C1CCCN(Cc2ccc3c(C(F)(F)F)c(O[C@H]4CC[C@@H](C(F)(F)F)CC4)ccc3c2)CC1 (relative stereo)', 'Autotaxin (Homo sapiens, UniProt Q13822)', '≥ 6.30'),
  ('O=C(O)c1cccc(CN2CC(CO)n3nc(-c4ccc(Cl)cc4)cc3C2=O)c1 (stereo not drawn)', 'Autotaxin (Homo sapiens, UniProt Q13822)', '≤ 6.00');

Problem: Fill in: pIC50 on Autotaxin (Homo sapiens, UniProt Q13822), entry CCc1nc2sc(N3CCC4(CC3)CN(S(C)(=O)=O)C4)nn2c1N(C)c1nc(-c2ccc(F)cc2)c(C#N)s1
Result: 6.00 to 6.30

Problem: Fill in: pIC50 on Autotaxin (Homo sapiens, UniProt Q13822), entry O=C(O)c1cccc(Sc2c(Br)n(-c3cccnc3)c3c(F)c(Cl)ccc23)c1F
Result: > 6.30

Problem: Fill in: pIC50 on Autotaxin (Homo sapiens, UniProt Q13822), entry CCCCCC1CN(CC(=O)N[C@@H](C(=O)O)c2ccccc2)C(=O)c2cc(-c3ccc(Cl)cc3)nn21 (stereo partly drawn)
Result: > 8.00
